Where do these numbers come from? They come from paper PMC11062922.

Tested on: PIM2
Parameters: species or system human, MV4-11 + K-562 + COLO205 + SK-N-BE2 + OVCAR-8
Conditions: read-out: apparent Kd; compound concentrations:100 nM and 1000 nM (sheet 'Samples'); n = 1
property: potency estimated from few doses (µM)

- molecule: "CCN1CCN(CCCC(=O)Nc2n[nH]c3nc(-c4ccc(O)cc4)c(Br)cc23)CC1"
  property: "potency estimated from few doses"
  readout unit: "µM"
  numeric readout: 0.557
- molecule: "COc1cc2c(cc1Nc1nc(Nc3ccsc3C(N)=O)c3cc[nH]c3n1)N(C(=O)CN(C)C)CCC2(C)C [GSK2163632A]"
  property: "potency estimated from few doses"
  readout unit: "µM"
  numeric readout: 1.92
- molecule: "O=C(O)C(F)(F)F.O=c1[nH]ccc2nc(N[C@@H]3CCNC3)nc(Nc3cc(Cl)cc(Cl)c3)c12 [GSK2188764A]"
  property: "potency estimated from few doses"
  readout unit: "µM"
  numeric readout: 2.03
- molecule: "O=C1NC(=O)C(c2ccccc2)=C1Nc1cccc(O)c1"
  property: "potency estimated from few doses"
  readout unit: "µM"
  numeric readout: 2.12
- molecule: "Fc1ccc(-c2c(-c3ccncc3)[nH]c3nccnc23)cc1"
  property: "potency estimated from few doses"
  readout unit: "µM"
  numeric readout: 1.07
- molecule: "O=C(Nc1n[nH]c2nc(-c3ccc(O)cc3)ccc12)C1CC1"
  property: "potency estimated from few doses"
  readout unit: "µM"
  numeric readout: 1.33
- molecule: "Cc1ccc(-n2nc(C(C)(C)C)cc2NC(=O)Nc2ccc(OCCN3CCOCC3)c3ccccc23)cc1 [GW839464X]"
  property: "potency estimated from few doses"
  readout unit: "µM"
  numeric readout: 1.67
- molecule: "O=C1NC(=O)C(c2ccc(Cl)cc2)=C1Nc1cccc(Cl)c1"
  property: "potency estimated from few doses"
  readout unit: "µM"
  numeric readout: 1.32
- molecule: "NC(=O)c1cc(-c2ccccc2)cc2c(C3CCNCC3)c[nH]c12 [GSK301362A]"
  property: "potency estimated from few doses"
  readout unit: "µM"
  numeric readout: 1.5
- molecule: "CN1CCC(C(=O)Nc2n[nH]c3nc(-c4ccc(O)cc4)c(Br)cc23)CC1"
  property: "potency estimated from few doses"
  readout unit: "µM"
  numeric readout: 1.66
- molecule: "CS(=O)(=O)CCn1c(=O)c(Oc2ccc(F)cc2F)cc2cnc(NC3CCOCC3)nc21"
  property: "potency estimated from few doses"
  readout unit: "µM"
  numeric readout: 1.66
- molecule: "Cc1ccc(NC(=O)CC2CC2)cc1-c1ccc(C(=O)NCC2CC2)cc1 [GW796920X]"
  property: "potency estimated from few doses"
  readout unit: "µM"
  numeric readout: 1.74
- molecule: "CC(=O)N[C@@H](Cc1ccc(OP(=O)(O)O)cc1)C(=O)N[C@H]1CCC(=O)N2CCC[C@@H](C(=O)NCc3ccccc3)N2C1=O"
  property: "potency estimated from few doses"
  readout unit: "µM"
  numeric readout: 1.77

----------
Test system: CIT;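 also: competition pulldown with Kinobeads ε in cell lysates, inhibitor preincubated 45 min at 4 °C, bound kinases quantified by LC–MS/MS against DMSO control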
Set-up: species or system human, MV4-11 + K-562 + COLO205 + SK-N-BE2 + OVCAR-8
Settings: read-out: apparent Kd; compound concentrations:0.3nM, 1nM, 3nM, 10nM, 30nM, 100nM, 300nM, 1000nM,R2:0.97918771846363795,slope:1.88206182244377,EC50 Standard Error, by the legend:Standard error of the EC50 estimation as provided by the drc package.
property: Kd

- compound: "CCn1c(-c2nonc2N)nc2c(C#CC(C)(C)O)nc(OCCN)cc21.CCn1c(-c2nonc2N)nc2c(C#CC(C)(C)O)nc(OCCN)cc21.Cl.Cl [GSK902056A]"
  property: "Kd"
  result: "279 nM"
